target: human thrombin (Homo sapiens)
pIC50: −log10 of the molar value. Counter-ions that a name gives are not always drawn.
assay-endpoint: pIC50

Nc1noc2cc(CNC(=O)[C@@H]3CCc4cnc(NCCc5ccccn5)c(=O)n43)ccc12 ... 6.85
O=C(NCc1ccccc1OCC1=NCCN1)[C@@H]1CCc2cnc(NCCc3ccccn3)c(=O)n21 ... 7.92

A. N=C(N)NOCCNC(=O)[C@@H]1CCc2cnc(NCC(c3ccccc3)c3ccccc3)c(=O)n21 [Example 3, dihydrochloride]
B. NC(=NO)c1ccc(CNC(=O)[C@@H]2CCc3cnc(NCC(c4ccccc4)c4ccccc4)c(=O)n32)cc1
[Q] Select one: A or B . Criterion: greater recorded pIC50. // return label of chosen record
[A] A
(A: 8.40, B: 6.85)
